settings: in DMF, 303.15 K
measure: solubility (mole fraction)

INSERT INTO measurements (smiles_data, quantitative_readout) VALUES
  ('CC1(C)[C@@H](O)CC[C@]2(C)[C@H]3C(=O)C=C4[C@@H]5C[C@@](C)(C(=O)O)CC[C@]5(C)CC[C@@]4(C)[C@]3(C)CC[C@@H]12', 0.0615);

====

settings: in DMF, 318.15 K
measure: solubility (mole fraction)

INSERT INTO results (smiles_data, quantitative_readout) VALUES
  ('CC1(C)[C@@H](O)CC[C@]2(C)[C@H]3C(=O)C=C4[C@@H]5C[C@@](C)(C(=O)O)CC[C@]5(C)CC[C@@]4(C)[C@]3(C)CC[C@@H]12', 0.0733);

====

settings: in DMF, 293.15 K
measure: solubility (mole fraction)

INSERT INTO measurements (smiles_data, measure, quantitative_readout) VALUES
  ('CC1(C)[C@@H](O)CC[C@]2(C)[C@H]3C(=O)C=C4[C@@H]5C[C@@](C)(C(=O)O)CC[C@]5(C)CC[C@@]4(C)[C@]3(C)CC[C@@H]12', 'solubility (mole fraction)', 0.0545);

====

settings: in water, 293.15 K
measure: solubility (mole fraction)

INSERT INTO results (smiles_data, measure, quantitative_readout) VALUES
  ('CC1(C)[C@@H](O)CC[C@]2(C)[C@H]3C(=O)C=C4[C@@H]5C[C@@](C)(C(=O)O)CC[C@]5(C)CC[C@@]4(C)[C@]3(C)CC[C@@H]12', 'solubility (mole fraction)', '1.5e-07');

====

settings: in isopropanol, 298.15 K
measure: solubility (mole fraction)

INSERT INTO results (smiles_data, measure, quantitative_readout) VALUES
  ('CC1(C)[C@@H](O)CC[C@]2(C)[C@H]3C(=O)C=C4[C@@H]5C[C@@](C)(C(=O)O)CC[C@]5(C)CC[C@@]4(C)[C@]3(C)CC[C@@H]12', 'solubility (mole fraction)', 0.0124);

====

settings: in isopropanol, 288.15 K
measure: solubility (mole fraction)

INSERT INTO assay_data (smiles_data, measure, quantitative_readout) VALUES
  ('CC1(C)[C@@H](O)CC[C@]2(C)[C@H]3C(=O)C=C4[C@@H]5C[C@@](C)(C(=O)O)CC[C@]5(C)CC[C@@]4(C)[C@]3(C)CC[C@@H]12', 'solubility (mole fraction)', 0.0108);

====

settings: in DMF, 298.15 K
measure: solubility (mole fraction)

INSERT INTO measurements (smiles_data, measure, quantitative_readout) VALUES
  ('CC1(C)[C@@H](O)CC[C@]2(C)[C@H]3C(=O)C=C4[C@@H]5C[C@@](C)(C(=O)O)CC[C@]5(C)CC[C@@]4(C)[C@]3(C)CC[C@@H]12', 'solubility (mole fraction)', 0.058);

====

settings: in DMF, 308.15 K
measure: solubility (mole fraction)

INSERT INTO results (smiles_data, result) VALUES
  ('CC1(C)[C@@H](O)CC[C@]2(C)[C@H]3C(=O)C=C4[C@@H]5C[C@@](C)(C(=O)O)CC[C@]5(C)CC[C@@]4(C)[C@]3(C)CC[C@@H]12', 0.0654);
